- System: TSSK1B
- Settings: concentration: 1 μM, replicates: in singlicate; n = 1;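 further: KINOMEscan kinase panel screen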
Each entry below lists one item and its recorded %Inh value.
Enter your answer as a number in %; do not include the unit.

Some solved entries appear below for comparison.
C[C@@H](Oc1cc(-n2cnc3ccc(NC(=O)NC(C)(C)C)cc32)sc1C(N)=O)c1ccccc1Cl	20
CCc1ccnc(/C=C/c2n[nH]c3cc(Sc4ccccc4C(=O)NC)ccc23)c1	0
O=C(Nc1cccc(-c2nn3ncccc3c2-c2ccnc(Nc3cccc(C(F)(F)F)c3)n2)c1)c1c(F)cccc1F	5
CC(C)Oc1ccc2c(-c3ccnc(Nc4ccc(N5CCN(C)CC5)cc4)n3)cnn2n1	79
O=C1NC(=O)C(N2CCc3ccccc32)=C1c1cccc(Cl)c1	22

get_value(item= Cl.Oc1cccc(Nc2ccnc3cc(-c4ccncc4)ccc23)c1 , readout=%Inh) returns 0

get_value(item= Cn1cc(-c2ccc3c(c2)CCN3C(=O)Cc2ccccc2Cl)c2c(N)ncnc21 , readout=%Inh) returns 17

get_value(item= CN(C(=O)c1ccc(-c2cc(-c3c[nH]nc3-c3ccccn3)ccn2)cc1)C1CCOCC1 , readout=%Inh) returns 0

---

Each entry below lists one item and its recorded %Inh value.
- Tested on: RSK3(Kin.Dom.1-N-terminal)
- Construct: gene RPS6KA2
- Settings: concentration: 1 μM, replicates: in singlicate; n = 1
Enter your answer as a number in %; do not include the unit.

Some solved entries appear below for comparison.
O=c1cc(N2CCOCC2)nc2n(Cc3cccc(F)c3)ccn12 [GSK2297430]	14
O=c1cc(N2CCOCC2)nc2n(Cc3cccc(Cl)c3Cl)c(C3CC3)nn12 [GSK2358994]	0
Cc1cccc(-c2nc(Nc3ccc4ncsc4c3)c3ccccc3n2)n1 [GW867588]	0
CC(=O)Nc1ccc(COc2ccc(Nc3ccnc4cc(-c5ccccn5)ccc34)cc2)cc1.Cl [GW440148]	3
COc1ccc(S(=O)(=O)NC2CCN(c3cc(C)nc(Nc4cccc(C#N)c4)n3)CC2)cc1.O=C(O)C(F)(F)F [GSK1653539]	1
[2H]C([2H])(c1cccc(C(F)(F)F)c1C)n1ccn2c(=O)nc(N3CCOCC3)cc12 [GSK2336394]	9
O=C(Nc1n[nH]c2cc(-c3cccc(F)c3)ccc12)C1CC1 [SB-735464]	2
COC(=O)Nc1nc2cc(Oc3ccc(NC(=O)Nc4cc(F)ccc4F)cc3)ccc2[nH]1.Cl [GW701424]	8

get_value(item= O=C1NC(=O)C(N2CCc3ccccc32)=C1c1cccc(Cl)c1 [SB-408010] , readout=%Inh) returns 10

get_value(item= Cn1cc(-c2ccc3c(c2)CCN3C(=O)Cc2ccccc2Cl)c2c(N)ncnc21 [GSK2608885] , readout=%Inh) returns 87

get_value(item= CC(C)Oc1ccc2c(-c3ccnc(Nc4ccc(N5CCN(C)CC5)cc4)n3)cnn2n1 [GW696155] , readout=%Inh) returns 7

get_value(item= Cc1c(Cn2c(C)nn3c(=O)cc(N4CCOC(C)C4)nc23)cccc1C(F)(F)F (stereo not drawn) [GSK2344444] , readout=%Inh) returns 3

get_value(item= Fc1ccc(-c2nn3c(OCC(F)(F)F)cccc3c2-c2ccncc2)cc1 [GW514784] , readout=%Inh) returns 3

get_value(item= c1ccc(-c2cc(-c3c[nH]nc3-c3ccccn3)ccn2)cc1 [GW576604] , readout=%Inh) returns 0

get_value(item= CC(C)(C)n1cnc2c(N)ncnc21 [SKF-97359] , readout=%Inh) returns 2

---

Each entry below lists one item and its recorded %Inh value.
- Tested on: p38-gamma
- Construct: gene MAPK12
- Settings: concentration: 1 μM, replicates: in singlicate; n = 1
Put your answer as a value accompanied by its unit after it.

Some solved entries appear below for comparison.
CSc1ccc(-c2cc3ncnc(SCC(=O)O)c3s2)cc1	5%
CCn1cnc2c(N)ncnc21	49%
COc1cc2ncn(-c3cc(OCc4sccc4Cl)c(C(N)=O)s3)c2cc1OC	0%

get_value(item= Cc1c(Cn2c(C)nn3c(=O)cc(N4CCOC(C)C4)nc23)cccc1C(F)(F)F (centres unmarked) , readout=%Inh) returns 0%

get_value(item= Cl.Nc1ncnc2occ(-c3ccc(NC(=O)Nc4cc(C(F)(F)F)ccc4F)cc3)c12 , readout=%Inh) returns 96.8%

---

- Test system: PAK1
- Settings: concentration: 1 μM, replicates: in singlicate; n = 1
Readout kind: %Inh (%)
Enter your answer as a number in %; do not include the unit.

Some solved entries appear below for comparison.
O=c1cc(N2CCOCC2)nc2n(Cc3cccc(F)c3)ccn12 [GSK2297430]	18
Fc1ccc(-c2ncn(CCCN3CCOCC3)c2-c2ccccn2)cc1 [SB-211742]	0

Consider the additional compound presented here.
get_value(item= CNc1ncnc2[nH]ncc12 [SKF-18355] , readout=%Inh) returns 0

---

- Test system: SRPK3
- Settings: concentration: 1 μM, replicates: in singlicate; n = 1
Each entry below lists one item and its recorded %Inh value.
Enter your answer as a number in %; do not include the unit.

Some solved entries appear below for comparison.
Nc1nccc(-c2c(-c3ccc(F)cc3)ncn2C2CCN(CC(F)(F)F)CC2)n1 [SB-236560]	6
O=C1Cc2cc(Nc3nc(NCc4cccc(S(=O)(=O)C(F)(F)F)c4)ncc3C(F)(F)F)ccc2N1	6
CSc1ccc(-c2cc3ncnc(SCC(=O)O)c3s2)cc1	0

get_value(item= Cc1ccc(NC(=O)c2ccnc(N3CCN(C)CC3)c2)cc1-c1ccc(C(=O)NCC2CC2)cc1 [GW775604] , readout=%Inh) returns 5

---

- Test system: TYK2(JH1domain-catalytic)
- Settings: concentration: 1 μM, replicates: in singlicate; n = 1
Readout kind: %Inh (%)
Enter your answer as a number in %; do not include the unit.

Some solved entries appear below for comparison.
CC(=O)Nc1ccc(COc2ccc(Nc3ccnc4cc(-c5ccccn5)ccc34)cc2)cc1.Cl [GW440148]	20
Cc1ccc(C(=O)NCC(N)=O)cc1-n1c(C)cc(OCc2ccc(F)cc2F)c(Br)c1=O	0
COc1cc(Nc2nccc(N3CCC(NC(=O)c4cccc(NC(C)=O)c4)C3)n2)cc(OC)c1OC (stereo not shown) [GSK1379754]	68

Consider the additional compound presented here.
get_value(item= NS(=O)(=O)c1cccc(-c2ccc3ncc(N4CCOCC4)nc3c2)c1 [GSK1535721] , readout=%Inh) returns 0

---

- Test system: GAK
- Settings: concentration: 1 μM, replicates: in singlicate; n = 1
The label is criterion met for %Inh below 10% and criterion not met for %Inh equal to or exceeding 10%.

A selection of reference data follows.
Cl.Oc1cccc(Nc2ccnc3cc(-c4ccncc4)ccc23)c1	criterion not met
O=c1cc(N2CCOCC2)nc2n(Cc3cccc(Cl)c3Cl)c(C3CC3)nn12	criterion not met
Cc1cccc(-c2nc(-c3ccc(S(C)(=O)=O)cc3)sc2-c2ccncc2)c1	criterion met
CCn1cnc2c(N)ncnc21	criterion met

Below 10% on %Inh? Entry Cc1cccc(Cn2ccn3c(=O)cc(N4CCOCC4)nc23)c1
criterion not met

Below 10% on %Inh? Entry O=c1cc(N2CCOCC2)nc2n(Cc3cccc(F)c3)ccn12
criterion not met

Below 10% on %Inh? Entry COC(=O)Nc1nc2cc(Oc3ccc(NC(=O)Nc4cc(F)ccc4F)cc3)ccc2[nH]1.Cl
criterion met

Below 10% on %Inh? Entry NCC(NC(=O)c1cc(-c2cn[nH]c2)c(-c2ccnc3[nH]ccc23)s1)c1ccccc1.O=C(O)C(F)(F)F.O=C(O)C(F)(F)F (stereo not drawn)
criterion not met

Below 10% on %Inh? Entry CN(C1=C(c2ccccc2)C(=O)NC1=O)c1ccccc1
criterion met

---

- Tested on: WNK2
- Settings: concentration: 1 μM, replicates: in singlicate; n = 1
Assign class by %Inh: not lower than 6% means class 1; lower than 6% means class 0.

A selection of reference data follows.
Cl.Nc1ncnc2occ(-c3ccc(NC(=O)Nc4cc(C(F)(F)F)ccc4F)cc3)c12	class 1
Fc1ccc(-c2nn3c(OCC(F)(F)F)cccc3c2-c2ccncc2)cc1	class 0

For this compound, is measured %Inh 6% or higher? CC(C)Oc1ccc2c(-c3ccnc(Nc4ccc(N5CCN(C)CC5)cc4)n3)cnn2n1
class 1

For this compound, is measured %Inh 6% or higher? Cc1nnc(-c2ccc(C)c(-c3ccc(C(=O)Nc4ccc(NS(C)(=O)=O)cc4)cc3)c2)o1
class 0

For this compound, is measured %Inh 6% or higher? N#Cc1ccc(-c2cc(-c3c[nH]nc3-c3ccccn3)ccn2)cc1
class 1

For this compound, is measured %Inh 6% or higher? Cc1nnc(-c2ccc3ncc(-c4ccc(S(C)=O)cc4)n3c2)o1 (stereo not shown)
class 0

---

- Tested on: ACVR2A
- Settings: concentration: 1 μM, replicates: in singlicate; n = 1
Each entry below lists one item and its recorded %Inh value.
Enter your answer as a number in %; do not include the unit.

Some solved entries appear below for comparison.
O=C(NCCCN1CCOCC1)c1cccc(Nc2nccc(Nc3ccc(Oc4ccccc4)cc3)n2)c1 [GW663929]	0
NS(=O)(=O)c1cccc(-c2ccc3nccc(-c4cccc(S(N)(=O)=O)c4)c3c2)c1 [GW867253]	0
Fc1ccc(-c2ncn(CCCN3CCOCC3)c2-c2ccccn2)cc1 [SB-211742]	0
O=c1cc(N2CCOCC2)nc2n(Cc3cccc4ccccc34)ccn12 [GSK2333389]	9

Consider the additional compound presented here.
get_value(item= O=C(NCCNc1ccnc(Nc2ccc(F)cc2)n1)Nc1ccccc1F [GSK1379880] , readout=%Inh) returns 0
